- Procedure Summary: Oral bioavailability in mouse at 5 mg/kg
- Format: ADME, organism-based
- Test Context: in vivo
Readout Kind: bioavailability (%)
Note: unit % is implicit; provide only the numeric part.

// bioavailability value for OCCCNc1ccc2c(c1)nc(-c1ccc3c(c1)OCO3)n1ncnc21 : 1.5
